- Measurement description: Degradation studies (hydrolytic stability at pH 1.2, 6.8, 7.4 and 9)
- Assay type: physicochemical
- Experimental setup: buffer pH 1.2, pH 1.2
Observable: half-life at 5 μg/ml (h)

> print(dat)
                                   compound  unit.text  observed.value
1  COc1cc(C=CC(=O)CC(=O)C=Cc2ccc(O)c(OC)c2)ccc1O [Free curcumin]          h            17.3

---

- Measurement description: Degradation studies (hydrolytic stability at pH 1.2, 6.8, 7.4 and 9)
- Type: physicochemical
- Experimental setup: phosphate buffer pH 6.8, pH 6.8
Observable: half-life at 5 μg/ml

> print(dat)
                                   compound  observed.value
1  COc1cc(C=CC(=O)CC(=O)C=Cc2ccc(O)c(OC)c2)ccc1O [Free curcumin]          1.32 h

---

- Measurement description: Degradation studies (hydrolytic stability at pH 1.2, 6.8, 7.4 and 9)
- Type: physicochemical
- Experimental setup: phosphate buffer pH 7.4, pH 7.4
Observable: half-life at 5 μg/ml (h)

> print(dat)
                                   molecule            observable  unit.text  observed.value
1  COc1cc(C=CC(=O)CC(=O)C=Cc2ccc(O)c(OC)c2)ccc1O [Free curcumin]  half-life at 5 μg/ml          h             9.4

---

- Measurement description: Solubility of curcumin
- Format: physicochemical
- Experimental setup: 50% (v/v) ethanol, aqueous with cosolvent or surfactant or cyclodextrin
Observable: solubility (µg/mL)

> print(dat)
                                   compound  unit.text  observed.value
1  COc1cc(C=CC(=O)CC(=O)C=Cc2ccc(O)c(OC)c2)ccc1O [Free curcumin]      µg/mL             693

---

- Measurement description: Solubility of curcumin
- Assay type: physicochemical
- Experimental setup: water; read-out: aqueous solubility
Observable: solubility

> print(dat)
                                   compound  observed.value
1  COc1cc(C=CC(=O)CC(=O)C=Cc2ccc(O)c(OC)c2)ccc1O [Free curcumin]       0.6 µg/mL

---

- Measurement description: Pharmacokinetic studies, single oral dose
- Type: in vivo, Wistar Rats
- Experimental setup: female, Wistar, rat, plasma; rats, 100 mg/kg single oral dose
Observable: AUC(0-inf)

> print(dat)
                                   molecule  observable  observed.value
1  COc1cc(C=CC(=O)CC(=O)C=Cc2ccc(O)c(OC)c2)ccc1O [Free curcumin]  AUC(0-inf)    2.69 ng·h/mL
